Hi there, I'd appreciate the recorded GLP-1 receptor activation relative to Val^8-GLP-1 (7-37) OH for every entry that follows.
# testTarget: human GLP-1 receptor (human, UniProt P43220 24-463)
# measurementNotes: cell-based or functional assay
Where no end group is shown, it is not given here.

Here are 8 binders together with their reported answers.
{"binder": "HGEGTFTSDVSSYLEGQAAKEFIEWLVKGRG-OH [Gly^8-Glu^30-GLP-1 (7-37) OH]", "testResult": "0.6 relative to Val^8-GLP-1 (7-37) OH"}
{"binder": "HVEGTFTSDVSSYLEAQAAKEFIAWLVKGRG-OH [Val^8-Ala^22-GLP-1 (7-37) OH]", "testResult": "1.2 relative to Val^8-GLP-1 (7-37) OH"}
{"binder": "HAEGTFTSDVSSYLEQQAAKEFIAWLVKGRG-OH [Gln^22-GLP-1 (7-37) OH]", "testResult": "0.9 relative to Val^8-GLP-1 (7-37) OH"}
{"binder": "HVEGTYTSDVSSYLEGQAAKEFIAWLVKGR-NH2 [Val^8-Tyr^12-GLP-1 (7-36) NH2]", "testResult": "1.1 relative to Val^8-GLP-1 (7-37) OH"}
{"binder": "HVDGIFTSDYSSYLEEQAAKEFIAWLVKGRG-OH [Val^8-Asp^9-Ile^11-Tyr^16-Glu^22-GLP-1 (7-37) OH]", "testResult": "4.3 relative to Val^8-GLP-1 (7-37) OH"}
{"binder": "HVEGTFTSDVSSYLEGQAAKEFIDWLVKGRG-OH [Val^8-Asp^30-GLP-1 (7-37) OH]", "testResult": "0.3 relative to Val^8-GLP-1 (7-37) OH"}
{"binder": "HVEGTWTSDVSSYLEEQAAKEFIAWLVKGRG-OH [Val^8-Trp^12-Glu^22-GLP-1 (7-37) OH]", "testResult": "1.7 relative to Val^8-GLP-1 (7-37) OH"}
{"binder": "HVEGTFTSDVSSYLEEQAIKEFIAWLVKGRG-OH [Val^8-Glu^22-Ile^25-GLP-1 (7-37) OH]", "testResult": "3.1 relative to Val^8-GLP-1 (7-37) OH"}

For every item in the list below, what is its measured GLP-1 receptor activation relative to Val^8-GLP-1 (7-37) OH?
1. HVEGTFTSDASSYLEGQAAKEFIAWLVKGRG-OH [Val^8-Ala^16-GLP-1 (7-37) OH]
2. HVEGTFTSDVSSYLEKEAAKEFIAWLVKGRG-OH [Val^8-Lys^22-Glu^23-GLP-1 (7-37) OH]
3. HVEGTFTSDWSSYLEEQAVKEFIAWLVKGRG-OH [Val^8-Trp^16-Glu^22-Val^25-GLP-1 (7-37) OH]
4. HVEGTFTSDVSSYLEEQAAKEFIAWLVKGRG-OH [Val^8-Glu^22-GLP-1 (7-37) OH]
5. HVEGTFTSDVSSYLEGKAAKEFIAWLVKGRG-OH [Val^8-Lys^23-GLP-1 (7-37) OH]

Completion:
["0.25 relative to Val^8-GLP-1 (7-37) OH", "0.8 relative to Val^8-GLP-1 (7-37) OH", "4.4 relative to Val^8-GLP-1 (7-37) OH", "2.9 relative to Val^8-GLP-1 (7-37) OH", "0.4 relative to Val^8-GLP-1 (7-37) OH"]

For every item in the list below, what is its measured GLP-1 receptor activation relative to Val^8-GLP-1 (7-37) OH?
1. HVEGTFTSDLSSYLEEQAAKEFIAWLVKGRG-OH [Val^8-Leu^16-Glu^22-GLP-1 (7-37) OH]
2. HVEGTFTSDVSSYKEGQAAKEFIAWLVKGRG-OH [Val^8-Lys^20-GLP-1 (7-37) OH]
3. HVEGTFTSDVSSYLEGQAAKEFIAWLVGKRG-OH [Val^8-Gly^34-Lys^35-GLP-1 (7-37) OH]
4. HVEGTFTSDVSSYLEGQAAKEFIAWLVKPRG-OH [Val^8-Pro^35-GLP-1 (7-37) OH]
5. HVEGTFTSDVSKYLEEQAAKEFIAWLVKGRG-OH [Val^8-Lys^18-Glu^22-GLP-1 (7-37) OH]

Completion:
4.3 relative to Val^8-GLP-1 (7-37) OH
0.7 relative to Val^8-GLP-1 (7-37) OH
0.7 relative to Val^8-GLP-1 (7-37) OH
0.2 relative to Val^8-GLP-1 (7-37) OH
2.5 relative to Val^8-GLP-1 (7-37) OH

For every item in the list below, what is its measured GLP-1 receptor activation relative to Val^8-GLP-1 (7-37) OH?
1. HVEGTYTSDYSSYLEGQAAKEFIAWLVKGRG-OH [Val^8-Tyr^12-Tyr^16-GLP-1 (7-37) OH]
2. HVEGTFTSDVSSYLEGQAAKHFIAWLVKGRG-OH [Val^8-His^27-GLP-1 (7-37) OH]
3. HVEGTFTSDVSSYLEKQAAKEFIAWLVKGRG-OH [Val^8-Lys^22-GLP-1 (7-37) OH]
4. HVEGTYTSDVSSYLEEQAAKEFIAWLVKGRG-OH [Val^8-Tyr^12-Glu^22-GLP-1 (7-37) OH]

Completion:
["1.5 relative to Val^8-GLP-1 (7-37) OH", "0.8 relative to Val^8-GLP-1 (7-37) OH", "1.3 relative to Val^8-GLP-1 (7-37) OH", "2.7 relative to Val^8-GLP-1 (7-37) OH"]

For every item in the list below, what is its measured GLP-1 receptor activation relative to Val^8-GLP-1 (7-37) OH?
1. HVEGTFTSDVSSYLEEKAAKEFIAWLVKGRG-OH [Val^8-Glu^22-Lys^23-GLP-1 (7-37) OH]
2. HVEGTFTSDVSSYLEGQAAEEFIAWLVKGRG-OH [Val^8-Glu^26-GLP-1 (7-37) OH]
3. HVEGTFTSDLSSYLEGQAAKEFIAWLVKGRG-OH [Val^8-Leu^16-GLP-1 (7-37) OH]
4. HVEGTFTSDVSSYLEGQALKEFIAWLVKGRG-OH [Val^8-Leu^25-GLP-1 (7-37) OH]

Completion:
1: 3.1 relative to Val^8-GLP-1 (7-37) OH; 2: 3.3 relative to Val^8-GLP-1 (7-37) OH; 3: 1.1 relative to Val^8-GLP-1 (7-37) OH; 4: 0.5 relative to Val^8-GLP-1 (7-37) OH
